- experimental-details: Biodistribution study (SPECT/CT) in HT-29 tumor-bearing mice
- Format: in vivo, NMRI nude mice
- measurement-parameters: female, NMRI nude, mouse, in vivo, iv, total radioactivity, Tumor/Liver uptake ratio at 4 h p.i.
readout-type: tissue to tissue ratio at 4 h
Give bare numbers.

Ask | Give its tissue to tissue ratio at 4 h value. Item: CC(C)C[C@@H]1NC(=O)[C@H](Cc2ccc(NC(=O)CCS(N)(=O)=O)cc2)NC(=O)[C@H](CC(=O)O)NC(=O)[C@H]2CCCN2C(=O)[C@H](CCC(=O)O)NC(=O)[C@@H](NC(=O)[C@H](CCC(N)=O)NC(=O)CN2CCN(CC(=O)O)CCN(CC(=O)O)CCN(CC(=O)O)CC2)CSCc2cccc(c2)CSC[C@@H](C(N)=O)NC(=O)[C@H](CO)NC(=O)[C@H](Cc2c[nH]c3ccccc23)NC(=O)[C@H]([C@@H](C)O)NC1=O [DPI-4501]
Reply | 29.8

---

- experimental-details: In vivo efficacy, biodistribution and tolerability of 225Ac-DPI-4452 in SK-RC-52 xenograft mouse model
- Set-up: species or system NMRI nude mice
- measurement-parameters: female, NMRI nude, mouse, colon, small intestine and stomach, iv, total radioactivity; SK-RC-52 model, 15 kBq, 4 hours after dosing
readout-type: tissue uptake at 4 h

Ask | Give its tissue uptake at 4 h value. Item: CC(C)C[C@@H]1NC(=O)[C@H](Cc2cccc(NC(=O)CCCS(N)(=O)=O)c2)NC(=O)[C@H](CC(=O)O)NC(=O)[C@H]2CCCN2C(=O)[C@H](CCC(=O)O)NC(=O)[C@@H](NC(=O)[C@H](CCC(N)=O)NC(=O)CN2CCN(C(=O)CN3CCN(CC(=O)O)CCN(CC(=O)O)CCN(CC(=O)O)CC3)CC2)CSCc2cccc(c2)CSC[C@@H](C(N)=O)NC(=O)[C@H](CO)NC(=O)[C@H](Cc2c[nH]c3ccccc23)NC(=O)[C@H]([C@@H](C)O)NC1=O [^225Ac-DPI-4452, metal not drawn]
Reply | < 1.1 %ID/g

---

- experimental-details: Extended single-dose toxicity study including safety pharmacology endpoints, i.v. bolus (GLP)
- Type: in vivo, beagle dogs
- measurement-parameters: beagle, dog, plasma, iv, 16 ug/kg; Male; 16 μg/kg single i.v. bolus; harmonic mean
readout-type: half-life

Ask | Give its half-life value. Item: CC(C)C[C@@H]1NC(=O)[C@H](Cc2cccc(NC(=O)CCCS(N)(=O)=O)c2)NC(=O)[C@H](CC(=O)O)NC(=O)[C@H]2CCCN2C(=O)[C@H](CCC(=O)O)NC(=O)[C@@H](NC(=O)[C@H](CCC(N)=O)NC(=O)CN2CCN(C(=O)CN3CCN(CC(=O)O)CCN(CC(=O)O)CCN(CC(=O)O)CC3)CC2)CSCc2cccc(c2)CSC[C@@H](C(N)=O)NC(=O)[C@H](CO)NC(=O)[C@H](Cc2c[nH]c3ccccc23)NC(=O)[C@H]([C@@H](C)O)NC1=O
Reply | 15.5 min

---

- study-system: human carbonic anhydrase IX (hCAIX-Fc) (Homo sapiens, UniProt Q16790)
- Construct: purchased SinoBliological (Sino Biological) 10107-H02H
- experimental-details: Surface plasmon resonance assay with hCAIX-Fc
- Format: binding
- measurement-parameters: SPR, hCAIX-Fc captured, 25° C.; read-out: pKD category (activity) (converted)
Starred links: 1 amine or outer side, 2 acyl side, 3 side chain; linkers in the order of their positions; H or OH if unused. Positions of bridges follow the written chain, without caps; N, C: chain ends. Non-standard residues stand in square brackets, D forms with d. Residues, ends and D or L forms follow the SMILES beside them. *: point of attachment. DOTA = O=C(O)CN1CCN(CC(=O)O)CCN(CC(=O)*)CCN(CC(=O)O)CC1; mXylylene = c1cc(C[*:1])cc(C[*:2])c1; X2 = O=C(CN1CCC(N[*:1])CC1)[*:2]
readout-type: Kd

Ask | Give its Kd value. Item: CC(C)C[C@@H]1NC(=O)[C@H](Cc2c[nH]c3ccccc23)NC(=O)[C@H](CC(=O)O)NC(=O)[C@H]2CCCN2C(=O)[C@H](CCC(N)=O)NC(=O)[C@@H](NC(=O)[C@H](Cc2ccc(O)cc2)NC(=O)[C@@H](NC(=O)CN2CCC(NC(=O)CN3CCN(CC(=O)O)CCN(CC(=O)O)CCN(CC(=O)O)CC3)CC2)C(C)C)CSCc2cccc(c2)CSC[C@@H](C(N)=O)NC(=O)[C@H](CO)NC(=O)[C@H](Cc2c[nH]c3ccccc23)NC(=O)[C@H]([C@@H](C)O)NC1=O [3BP-4104] ({DOTA}-[X2]VYCQ[dP]DWLTWSC-NH2; linker 4-13 via mXylylene)
Reply | < 0.01 µM
